Origin of values: patent US20210130473A1

In this section we review reported pIC50 values for a set of molecules.
Target: ALK5 (Homo sapiens, UniProt P36897)
Construct: purchased Reaction Biology Corp (Malvern, Pa.)
Sequence (P36897 34-503): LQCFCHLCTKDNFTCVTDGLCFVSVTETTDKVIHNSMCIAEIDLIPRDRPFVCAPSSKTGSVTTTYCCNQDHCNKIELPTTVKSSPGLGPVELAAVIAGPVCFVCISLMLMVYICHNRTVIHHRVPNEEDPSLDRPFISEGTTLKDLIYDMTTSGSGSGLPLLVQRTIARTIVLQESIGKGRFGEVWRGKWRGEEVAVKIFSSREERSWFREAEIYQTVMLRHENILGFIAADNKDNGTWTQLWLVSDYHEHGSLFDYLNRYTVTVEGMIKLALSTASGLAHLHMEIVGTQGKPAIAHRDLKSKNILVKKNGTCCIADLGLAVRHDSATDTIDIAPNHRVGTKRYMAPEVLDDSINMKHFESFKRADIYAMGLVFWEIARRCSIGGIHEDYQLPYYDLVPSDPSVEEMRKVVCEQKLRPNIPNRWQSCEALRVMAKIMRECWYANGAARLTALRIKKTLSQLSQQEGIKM
Assay: ALK5 enzyme inhibition assay (casein substrate, 10 uM ATP, 33P-ATP, filter-binding; Reaction Biology Corp)
Format: biochemical
Settings: Table 11
pIC50: −log10 of the molar value.

• Cc1cccc(-c2nc(CNCc3ccccc3C3CCCCC3)[nH]c2-c2ccc3ncnn3c2)n1 = 6.00 to 7.00
• Cc1cccc(-c2nc(CNCCOc3ccccc3)[nH]c2-c2ccc3ncnn3c2)n1 = 6.00 to 7.00
• Cc1cccc(-c2nc(CNCCc3c(F)cccc3F)[nH]c2-c2ccc3ncnn3c2)n1 = 7.30 to 10.00
• Cc1cccc(-c2nc(CNCCc3ccccc3F)[nH]c2-c2ccc3ncnn3c2)n1 = 7.30 to 10.00
• Cc1cccc(-c2nc(CNCc3ccccc3-c3cccnc3)[nH]c2-c2ccc3ncnn3c2)n1 = 7.00 to 7.30

Task: GET /values?readout=pIC50&item= `Cc1cccc(-c2nc(CN[C@@H](CO)c3ccccc3)[nH]c2-c2ccc3ncnn3c2)n1`
Result: 7.00 to 7.30

Task: GET /values?readout=pIC50&item= `Cc1cccc(-c2nc(CNCc3c(Cl)cccc3Cl)[nH]c2-c2ccc3ncnn3c2)n1`
Result: 7.30 to 10.00

Task: GET /values?readout=pIC50&item= `Cc1cccc(-c2nc(CNCc3ccccc3Oc3cccnc3)[nH]c2-c2ccc3ncnn3c2)n1`
Result: 7.00 to 7.30
